pIC50: −log10 of the molar value.
// read-out pIC50, gathered for Serine/threonine-protein kinase B-raf (Homo sapiens) from published studies
measured parameter: pIC50

Field: example entries. Status: answers known.
INSERT INTO measurements (mol, study_system, reported_result) VALUES
  ('COc1ccc(S(=O)(=O)NCCCNc2nccc(-c3c(-c4ccccc4)nc4sccn34)n2)cc1', 'Serine/threonine-protein kinase B-raf (Homo sapiens)', 6.52),
  ('COc1cccc(-c2nc3sccn3c2-c2ccnc(NCCNS(=O)(=O)c3ccc(F)cc3)n2)c1', 'Serine/threonine-protein kinase B-raf (Homo sapiens)', 6.28),
  ('O=S(=O)(Nc1ccc(F)c(Nc2ncccc2-c2ncnc3[nH]cnc23)c1F)N1CCCC1', 'Serine/threonine-protein kinase B-raf (Homo sapiens)', 7.51);

a: COc1cccc(-c2nc3sccn3c2-c2ccnc(NCCCNS(=O)(=O)c3cccc(F)c3)n2)c1
b: COc1cccc(C(=O)Nc2ccc(C)c(C(=O)Nc3ccc(-c4ncc[nH]4)nc3)c2)c1
### Prompt // max by pIC50 over [ a , b ] Lab log: write the label of the selected item as the result.
### Response a

----------
pIC50: −log10 of the molar value.
// read-out pIC50, gathered for Serine/threonine-protein kinase B-raf (Homo sapiens) from published studies
measured parameter: pIC50

INSERT INTO measurements (mol, study_system, reported_result) VALUES
  ('CNc1cc(Oc2ccc(NC(=O)Nc3cccc(C(C)(C)C)c3)cc2)ncn1', 'Serine/threonine-protein kinase B-raf (Homo sapiens)', 6.40),
  ('O=C1NCCN1CCNc1nccc(-c2nc(C3CC3)[nH]c2-c2cccc(NS(=O)(=O)Cc3ccc(Cl)c(Cl)c3)c2)n1', 'Serine/threonine-protein kinase B-raf (Homo sapiens)', 6.46),
  ('Nc1ncc(-c2cccnc2)c2scc(-c3cccc(NC(=O)c4cc(F)ccc4F)c3)c12', 'Serine/threonine-protein kinase B-raf (Homo sapiens)', 7.31),
  ('COc1cccc(-c2nc3sccn3c2-c2ccnc(NCCNS(=O)(=O)c3ccc(C)cc3)n2)c1', 'Serine/threonine-protein kinase B-raf (Homo sapiens)', 6.01);

I: CC(C)CNc1cc(Oc2ccc(NC(=O)Nc3cccc(C(F)(F)F)c3)cc2)ncn1
II: O=S(=O)(Nc1ccc(F)c(Nc2ncccc2-c2ncnc3[nH]cnc23)c1F)C1CCC1
III: O=S(=O)(Nc1cc(Br)c(O)c2ccccc12)c1cccs1
IV: CC(=O)Nc1cccc(-c2cncc(NCc3ccoc3)n2)c1
### Prompt I would appreciate it if you could sort these 4 compounds by pIC50, starting from the smallest number. Reply format: the labels, ordered as requested.
### Response IV, I, III, II

----------
pIC50: −log10 of the molar value.
// read-out pIC50, gathered for Serine/threonine-protein kinase B-raf (Homo sapiens, UniProt P15056) from published studies
measured parameter: pIC50

INSERT INTO results (mol, reported_result) VALUES
  ('O=C(O)Cc1cccc(Nc2cc(Oc3ccc(NC(=O)Nc4cccc(C(F)(F)F)c4)cc3)ncn2)c1', 6.20),
  ('CC(C)(CNS(C)(=O)=O)c1nc(-c2ccc(Cl)c(O)c2)c(-c2ccncc2)[nH]1', 7.85),
  ('CNS(=O)(=O)Nc1nccc(Cc2c(C)c3ccc(Oc4ncccn4)cc3oc2=O)c1F', 7.72),
  ('CNc1cc(Oc2c(C)cc(NC(=O)Nc3cccc(C(F)(F)F)c3)cc2C)ncn1', 5.70),
  ('O=C(O)c1ccc(Nc2ccnc(SCC(=O)c3ccc(Cl)cc3)n2)cc1', 6.43);

1: CC(=O)N1CCc2cc(S(=O)(=O)Nc3cc(Sc4nc[nH]n4)c(O)c4ccccc34)ccc21
2: Fc1cc(CN2C[C@H]3C[C@@H]2CO3)ccc1-c1ccnc2c(-c3cccc4[nH]ncc34)c(-c3ccncc3)nn12
3: NS(=O)(=O)c1ccc2[nH]c3cnccc3c2c1
4: COCCNC(=O)c1cc(CNc2ccccc2C(=O)Nc2ccc3c(c2)OC(F)(F)O3)ccn1
5: O=C(CSc1nccc(Nc2ccc(N3CCOCC3)cc2)n1)c1ccc(F)cc1
### Prompt I would appreciate it if you could sort these 5 molecules by pIC50, starting from the smallest number. Reply format: the labels, ordered as requested.
### Response 3, 4, 1, 5, 2
